Source: patent US12441768B2

Target: β-catenin (Homo sapiens, UniProt P35222)
Sequence (P35222 1-781): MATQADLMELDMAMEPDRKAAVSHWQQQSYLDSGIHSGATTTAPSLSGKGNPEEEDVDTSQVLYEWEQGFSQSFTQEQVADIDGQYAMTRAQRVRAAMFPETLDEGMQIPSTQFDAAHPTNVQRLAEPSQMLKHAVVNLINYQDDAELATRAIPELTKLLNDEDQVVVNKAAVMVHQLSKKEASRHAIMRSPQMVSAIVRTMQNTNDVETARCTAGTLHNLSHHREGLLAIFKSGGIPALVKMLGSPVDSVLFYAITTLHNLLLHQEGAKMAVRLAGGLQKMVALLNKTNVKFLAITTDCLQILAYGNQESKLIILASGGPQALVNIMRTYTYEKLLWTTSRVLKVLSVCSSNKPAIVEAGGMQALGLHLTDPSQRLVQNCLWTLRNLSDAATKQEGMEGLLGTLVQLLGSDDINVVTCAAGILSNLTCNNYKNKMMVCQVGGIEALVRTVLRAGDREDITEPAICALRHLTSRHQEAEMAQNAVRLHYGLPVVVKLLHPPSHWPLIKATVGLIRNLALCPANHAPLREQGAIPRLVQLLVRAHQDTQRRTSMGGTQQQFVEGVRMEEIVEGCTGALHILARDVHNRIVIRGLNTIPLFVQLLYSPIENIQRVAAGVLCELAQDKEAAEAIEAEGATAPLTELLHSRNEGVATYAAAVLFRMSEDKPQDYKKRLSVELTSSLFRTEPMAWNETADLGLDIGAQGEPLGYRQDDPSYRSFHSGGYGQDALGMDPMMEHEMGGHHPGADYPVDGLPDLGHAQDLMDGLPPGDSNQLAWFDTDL
Assay: KD50 measurement using competitive fluorescence polarization (FP) with labelled TCF4
Type: binding
Conditions: fluorescence polarization, β-catenin
Where a SMILES comes first, the peptide text is derived from it.
endpoint: β-Cat FP Hill slope

compound	meas-value
CC[C@H](C)[C@@H]1NC(=O)[C@H](CC(C)C)NC(=O)[C@H]([C@@H](C)CC)NC(=O)[C@H](Cc2c[nH]c3ccccc23)NC(=O)[C@@H](NC(C)=O)CCCCNC(=O)CC[C@@H](C(=O)O)NC(=O)[C@H](Cc2c[nH]c3ccccc23)NC(=O)[C@H](C)NC(=O)[C@H](CO)NC1=O [compound 188] (HELM PEPTIDE1{[ac].K.W.I.L.I.S.A.W.E}$PEPTIDE1,PEPTIDE1,2:R3-10:R3$$$V2.0)	0.7
CC[C@@H]1NC(=O)[C@H]([C@@H](C)CC)NC(=O)[C@H](CC(C)C)NC(=O)[C@H](Cc2ccccc2)NC(=O)[C@H](Cc2c[nH]c3ccccc23)NC(=O)[C@@H](N)CCCCNC(=O)C[C@@H](C(=O)O)NC(=O)[C@H](Cc2c[nH]c3ccccc23)NC(=O)[C@H](C)NC1=O [compound 244] (HELM PEPTIDE1{K.W.F.L.I.[Abu].A.W.D}$PEPTIDE1,PEPTIDE1,1:R3-9:R3$$$V2.0)	1.9
